assay: Binding affinity to pig cortical membrane 5HT1A receptor; design: species or system Sus scrofa
pKi: −log10 of the molar value.
Rule: pKi of 6 or more gives 1 (yes); anything lower gives 0 (no).

Worked examples follow.
FCCOc1cccc(CN2CCN(c3ccc(Cl)cc3)CC2)c1	0 (no)
COc1ccccc1N1CCN(Cc2cccc(OCCF)c2)CC1	1 (yes)
COc1cc(CN2CCN(c3ccccc3OC)CC2)c(OCCF)cc1OC	1 (yes)

pKi >= 6 for COc1cc(CN2CCN(c3ccc(Cl)cc3)CC2)c(OCCF)cc1OC ?
0 (no)

pKi >= 6 for COc1cc(CN2CCN(c3ccccc3OC)CC2)ccc1OCCF ?
1 (yes)
